The reported measurements were obtained from paper PMC11369174.

target: KPNA7 ARM major (Homo sapiens); test: FP displacement assay, KPNA7 ARM major pocket; type: binding; settings: read-out: KD-values [µM] + SEM
Sequence (A9QM74 66-488 limits assumed): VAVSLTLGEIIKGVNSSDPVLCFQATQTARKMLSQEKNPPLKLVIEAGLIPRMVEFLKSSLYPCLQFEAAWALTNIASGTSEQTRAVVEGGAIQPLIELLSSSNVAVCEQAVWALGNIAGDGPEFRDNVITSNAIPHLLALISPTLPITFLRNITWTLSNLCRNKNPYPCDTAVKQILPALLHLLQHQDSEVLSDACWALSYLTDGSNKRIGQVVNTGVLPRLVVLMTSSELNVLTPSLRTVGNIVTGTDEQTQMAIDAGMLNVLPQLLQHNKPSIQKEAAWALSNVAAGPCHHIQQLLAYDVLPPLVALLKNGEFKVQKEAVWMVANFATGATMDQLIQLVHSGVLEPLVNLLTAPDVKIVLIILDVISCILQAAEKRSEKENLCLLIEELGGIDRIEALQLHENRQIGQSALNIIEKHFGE
Please respond with reported Kd for every item in the list.
Numbers only, in µM.

| substance | test.readout | numeric.result |
| --- | --- | --- |
| Ac-EPSEKCTRLEEEIVEY-NH2 [CDC45_152-166 R157C] | Kd | 380 |

-- ask For the substance Ac-EPSEKRTRLEEEIVEY-NH2 [CDC45_152-166 wild-type] , give its reported Kd.
-- reply 6.6

----------
target: USP7 MATH/TRAF (Homo sapiens); test: FP displacement assay, USP7 MATH/TRAF; format: binding; conditions: read-out: KD-values [µM] + SEM
Sequence (Q93009 53-206): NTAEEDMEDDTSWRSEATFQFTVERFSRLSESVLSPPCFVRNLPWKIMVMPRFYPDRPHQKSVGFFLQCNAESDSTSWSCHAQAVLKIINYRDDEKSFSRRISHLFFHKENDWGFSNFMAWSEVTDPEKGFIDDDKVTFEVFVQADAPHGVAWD
test.readout: Kd (µM)
Numbers only, in µM.

| substance | unit.name | Kd |
| --- | --- | --- |
| Ac-YISSSSTSTMPNSSQSS-NH2 [CHK2_38-53 wild-type] | µM | 3.1 |

-- ask Annotate the substance Ac-YISSSSTSTMPNSSKSS-NH2 [CHK2_38-53 Q51K] with its measured Kd.
-- reply 4.7
